target: NAMPT (human, recombinant, C-terminally His-tagged) (Homo sapiens, UniProt P43490); assay: Time-Resolved Fluorescence Resonance Energy Transfer (TR-FRET) Binding Assay of NAMPT; conditions: 6.8 nM NAMPT, 200 nM probe, equilibrated 3 hours, absence of substrates
Sequence (P43490 whole entry): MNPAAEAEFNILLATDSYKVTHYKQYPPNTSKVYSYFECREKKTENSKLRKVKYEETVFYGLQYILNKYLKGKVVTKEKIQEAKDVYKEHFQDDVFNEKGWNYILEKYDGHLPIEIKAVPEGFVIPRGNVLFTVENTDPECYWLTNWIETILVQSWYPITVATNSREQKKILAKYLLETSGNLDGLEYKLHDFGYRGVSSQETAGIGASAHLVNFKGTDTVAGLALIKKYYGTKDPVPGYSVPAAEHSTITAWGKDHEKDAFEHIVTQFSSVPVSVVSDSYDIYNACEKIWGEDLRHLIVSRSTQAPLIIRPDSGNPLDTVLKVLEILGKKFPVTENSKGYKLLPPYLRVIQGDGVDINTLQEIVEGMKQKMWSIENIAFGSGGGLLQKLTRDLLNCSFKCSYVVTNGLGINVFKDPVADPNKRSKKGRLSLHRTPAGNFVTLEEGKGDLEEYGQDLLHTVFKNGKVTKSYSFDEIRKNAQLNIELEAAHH
measure-name: IC50 (nM)

O=C(Nc1ccc(OC2CCN(C(=O)c3cccc(OC(F)(F)F)c3)CC2)cc1)C1CN(c2cccnn2)C1    151
Cc1ncccc1N1CC(C(=O)Nc2ccc(C3CCN(C(=O)CC4CCCC4)CC3)cc2)C1    144
O=C1CC[C@H](C(=O)N2CCC(c3ccc(NC(=O)C4CN(c5cccnc5)C4)cc3)CC2)N1    160

###

biological target: NAMPT (human, recombinant, C-terminally His-tagged) (Homo sapiens, UniProt P43490); experiment: Time-Resolved Fluorescence Resonance Energy Transfer (TR-FRET) Binding Assay of NAMPT; conditions: 6.8 nM NAMPT, 200 nM probe, equilibrated 3 hours, absence of substrates
measure-name: IC50 (nM)

O=C(Nc1ccc(OC2CN(C(=O)CC(F)(F)F)C2)cc1)C1CN(c2ccnnc2)C1    108
Cc1ncccc1N1CC(C(=O)Nc2ccc(C3CCN(C(=O)C(C)C)CC3)cc2)C1    79.8
O=C(Nc1ccc(OC2CCN(C(=O)CC3CCOCC3)CC2)cc1)C1CN(c2cccnc2)C1    120

1: O=C(Nc1ccc(OC2CCN(C(=O)Cc3ccc(F)cc3)CC2)cc1)C1CN(c2cccnn2)C1
2: CCC(C)CC(=O)N1CCC(c2ccc(NC(=O)C3CN(c4cccnc4C)C3)cc2)CC1 (stereo not drawn)
Problem: Could you determine which record has the numerically smaller IC50? Candidates: 1 and 2 Refer to your chosen entry by its label in the reply.
Solution: 2
(2: 74.5 nM, 1: 141 nM)

###

Biological target: NAMPT (human, recombinant, C-terminally His-tagged) (Homo sapiens, UniProt P43490)
Test: Time-Resolved Fluorescence Resonance Energy Transfer (TR-FRET) Binding Assay of NAMPT
Conditions: 6.8 nM NAMPT, 200 nM probe, equilibrated 3 hours, absence of substrates
Procedure: Determination of the utility of compounds having Formula (I) as binders to and inhibitors of NAMPT was performed using Time-Resolved Fluorescence Resonance Energy Transfer (TR-FRET) binding assays. Time-Resolved Fluorescence Resonance Energy Transfer (TR-FRET) Binding Assay of NAMPT […]
measure-name: IC50 (nM)

Solved cases below.
O=C(Nc1ccc(C2CCN(C(=O)CC3CCCC3)CC2)cc1)C1CN(c2cccnc2)C1    16.5
O=C(Nc1ccc(OC2CCN(C(=O)c3cccc(C(F)(F)F)c3)CC2)cc1)C1CN(c2cccnn2)C1    215

I: CC(C)(C)C(=O)N1CCC(Oc2ccc(NC(=O)C3CN(c4cccnc4)C3)cc2)CC1
II: CCCC(C)CN1CCC(Oc2ccc(NC(=O)C3CN(c4cccnc4)C3)cc2)CC1 (centres unmarked)
III: O=C(Nc1ccc(C2CCN(C(=O)CCN3CCOCC3)CC2)cc1)C1CN(c2cccnc2)C1
Problem: Give the ascending ranking of the items by reported IC50. Output spec: labels arranged per the requested ranking.
Solution: III, I, II

I: CCCC(C)C(=O)N1CCC(c2ccc(NC(=O)C3CN(c4cccnn4)C3)cc2)CC1 (centres unmarked)
II: CC(C)C(=O)N1CCC(Oc2ccc(NC(=O)C3CN(c4ccnnc4)C3)cc2)CC1
Problem: I'm curious, which of these has a smaller IC50 number: I or II ? Refer to your chosen item by its label in the answer.
Solution: I

P: CCC(=O)N1CCC(c2ccc(NC(=O)C3CN(c4cccnc4C)C3)cc2)CC1
Q: CC(C)Cn1cc(-c2ccc(NC(=O)C3CN(c4ccnnc4)C3)cc2)cn1
Problem: Given P and given Q , which shows the smaller recorded IC50? Respond with the label that goes with your answer.
Solution: Q

a: CCOCC(=O)N1CCC(Oc2ccc(NC(=O)C3CN(c4cccnc4)C3)cc2)CC1
b: CC(C)CCC(=O)N1CCC(c2ccc(NC(=O)C3CN(c4cccnc4)C3)cc2)CC1
Problem: Which numeric IC50 is bigger, that of a or that of b ? Refer to your chosen item by its label in the answer.
Solution: a
(a: 138 nM, b: 26.5 nM)

a: CC(C)(C)OC(=O)N1CCC(c2ccc(C(=O)NC3CN(c4cccnn4)C3)cc2)CC1
b: CC(C)(C)CC(=O)N1CCC(Oc2ccc(NC(=O)C3CN(c4cccnc4)C3)cc2)CC1
c: O=C(Nc1ccc(C2CCN(C(=O)Cc3ccc(Cl)cc3)CC2)cc1)C1CN(c2cccnn2)C1
Problem: Reorder: IC50, max to min. The reply should contain the labels ordered as requested.
Solution: a, b, c
(a: 3860 nM, b: 69.2 nM, c: 30.5 nM)
